- Measured On: PU.1 (human, UniProt P17947 1-270)
- Assay Notes: MST; MST: 20 mM Tris-HCl pH 7.6, 1.5 mM MgCl2, 0.5 mM EGTA, 10% glycerol, 300 mM KCl, 10 mM DTT, 25 C; 50 nM Cy3-dsDNA, PU.1 1:1 dilutions from 23 uM
- Test Parameters: protein: recombinant; tags: N-terminal His-tag; label: Cy3 on upper strand
// classify: if (Kd < 600 nM) True else False

> print(dat)
                                      binder  classification
 1  PU.1 motif oligo 27 (dsDNA) DNA 1: ACGTCTCTTCCTCTTTACGT DNA 2: ACGTAAAGAGGAAGAGACGT           False
 2  PU.1 motif oligo 35 (dsDNA) DNA 1: ACGTTGCTTCCTCTTTACGT DNA 2: ACGTAAAGAGGAAGCAACGT            True
 3  PU.1 motif oligo 24 (dsDNA) DNA 1: ACGTAACTTCCTCAATACGT DNA 2: ACGTATTGAGGAAGTTACGT            True
 4  PU.1 motif oligo 58 (dsDNA) DNA 1: ACGTCACTTCCCCAGGACGT DNA 2: ACGTCCTGGGGAAGTGACGT           False
 5  PU.1 motif oligo 46 (dsDNA) DNA 1: ACGTCACTTCCTCCAGACGT DNA 2: ACGTCTGGAGGAAGTGACGT           False
 6  PU.1 motif oligo 4 (dsDNA) DNA 1: ACGTCACTTCCTCTATACGT DNA 2: ACGTATAGAGGAAGTGACGT            True
 7  PU.1 motif oligo 68 (dsDNA) DNA 1: ACGTGACTTCTGCTTTACGT DNA 2: ACGTAAAGCAGAAGTCACGT           False
 8  PU.1 motif oligo 8 (dsDNA) DNA 1: ACGTCACTTCCCCTTAACGT DNA 2: ACGTTAAGGGGAAGTGACGT            True
 9  PU.1 motif oligo 16 (dsDNA) DNA 1: ACGTAACTTCCTCATAACGT DNA 2: ACGTTATGAGGAAGTTACGT            True
10  PU.1 motif oligo 7 (dsDNA) DNA 1: ACGTCAGTTCCTCTTTACGT DNA 2: ACGTAAAGAGGAACTGACGT            True
11  PU.1 motif oligo 69 (dsDNA) DNA 1: ACGTCAGTTCTGCTTTACGT DNA 2: ACGTAAAGCAGAACTGACGT           False
